Test: Thermal stability of neat compound (solid state, HPLC)
Format: physicochemical
Conditions: solid state, 60 °C, 12 Wks, in the dark; read-out: % Initial
readout: remaining at 2016 h (%)

>>> print(df.to_string())
                                   compound  readout_unit  readout_value
0  CC(C)(N)C(=O)N[C@H](COCc1ccccc1)C(=O)N1CCC2(CC1)CN(S(C)(=O)=O)c1ccccc12 [Form II]             %            101

----------
The compounds listed here are annotated with their water content (total volatiles by TGA).
Experiment: Total volatiles / water content (TGA) and water of hydration
Type: physicochemical
readout: water content (total volatiles by TGA)

                                   compound  readout_value
0  CC(C)(N)C(=O)N[C@H](COCc1ccccc1)C(=O)N1CCC2(CC1)CN(S(C)(=O)=O)c1ccccc12 [Form I]      0.79 wt %
1  CC(C)(N)C(=O)N[C@H](COCc1ccccc1)C(=O)N1CCC2(CC1)CN(S(C)(=O)=O)c1ccccc12 [Form IV]  9.5-10.0 wt %
2  CC(C)(N)C(=O)N[C@H](COCc1ccccc1)C(=O)N1CCC2(CC1)CN(S(C)(=O)=O)c1ccccc12 [Form II]      0.56 wt %
3  CC(C)(N)C(=O)N[C@H](COCc1ccccc1)C(=O)N1CCC2(CC1)CN(S(C)(=O)=O)c1ccccc12 [Form III]   4.5-5.0 wt %

----------
The molecules listed here are annotated with their % Gain/Loss.
Test: Hygroscopicity: storage of solid forms in constant relative humidity chambers
Format: physicochemical
Settings: 11% RH, room temperature, 48 hrs
readout: % Gain/Loss (%)

In [3]: df
Out[3]:
                                   molecule      readout  readout_value
0  CC(C)(N)C(=O)N[C@H](COCc1ccccc1)C(=O)N1CCC2(CC1)CN(S(C)(=O)=O)c1ccccc12 [Form IV]  % Gain/Loss           -4.9
1  CC(C)(N)C(=O)N[C@H](COCc1ccccc1)C(=O)N1CCC2(CC1)CN(S(C)(=O)=O)c1ccccc12 [Form I]  % Gain/Loss          -0.05
2  CC(C)(N)C(=O)N[C@H](COCc1ccccc1)C(=O)N1CCC2(CC1)CN(S(C)(=O)=O)c1ccccc12 [Form III]  % Gain/Loss          -0.15

----------
Assay: Thermal stability of neat compound (solid state, HPLC)
Assay type: physicochemical
Conditions: solid state, 60 °C, 1 Wk, in the dark; read-out: % Initial
readout: remaining at 168 h (%)

>>> df
                                   compound  readout_value
0  CC(C)(N)C(=O)N[C@H](COCc1ccccc1)C(=O)N1CCC2(CC1)CN(S(C)(=O)=O)c1ccccc12 [Form II]           99.4

----------
Assay: Thermal stability of neat compound (solid state, HPLC)
Type: physicochemical
Conditions: solid state, 60 °C, 6 Wks, in the dark; read-out: % Inital
Description: The solid state stability of neat compound was assessed by storage of the drug in glass screw-cap vials in the dark. Samples were assayed by HPLC and the parent compound was quantitatively analyzed. The isocratic method that was employed is outlined below: Column: Beckman Ultrasphere ODS (250×4.6 mm, 5 μ) Mobile Phase: 0.1% TEA, pH 4.0 with H3 PO4 :Acetonitrile (65:35) Detection Wavelength: 228 nm Column Temperature: Ambient […] The results shown below for Forms I and II were calculated as weight percent.
readout: remaining at 1008 h

                                   molecule  readout_value
0  CC(C)(N)C(=O)N[C@H](COCc1ccccc1)C(=O)N1CCC2(CC1)CN(S(C)(=O)=O)c1ccccc12 [Form I]           101%

Attribution: patent US5767124A
